Recorded % LDH/control 10 μM, one value per entry.
Test system: Caco-2 cells
Assay: LDH release of Caco-2 cells
Format: cell-based, human
Settings: Caco-2 J4, 10 μM
measure: % LDH/control 10 μM (%)

# molecule, measure, unit-name, value-reported
records = [
    ("NCCCNCCCCNCCCNCc1ccc2cccc(O)c2n1 [HQ1-343]", "% LDH/control 10 μM", "%", 89),
    ("NCCCNCCCNCc1ccc2cccc(O)c2n1 [HQ1-33]", "% LDH/control 10 μM", "%", 118),
    ("NCCCNCCCCNCCCCNCc1ccc2cccc(O)c2n1 [HQ1-443]", "% LDH/control 10 μM", "%", 88),
    ("NCCCCNCCCCNCCCNCc1ccc2cccc(O)c2n1 [HQ1-344]", "% LDH/control 10 μM", "%", 95),
    ("NCCCNCCCCNCc1ccc2cccc(O)c2n1 [HQ1-43]", "% LDH/control 10 μM", "%", 93),
    ("O=C(O)c1ccc(-n2nc(-c3ccccc3O)nc2-c2ccccc2O)cc1 [ICL670, reference compound]", "% LDH/control 10 μM", "%", 117),
    ("Oc1cccc2cccnc12 [8-hydroxyquinoline, reference compound]", "% LDH/control 10 μM", "%", 281),
    ("NCCCCNCCCNCc1ccc2cccc(O)c2n1 [HQ1-34]", "% LDH/control 10 μM", "%", 100),
    ("NCCCCNCCCCNCCCCNCc1ccc2cccc(O)c2n1 [HQ1-444]", "% LDH/control 10 μM", "%", 99),
    ("NCCCNCCCNCCCNCc1ccc2cccc(O)c2n1 [HQ1-333]", "% LDH/control 10 μM", "%", 112),
    ("NCCCCNCCCCNCc1ccc2cccc(O)c2n1 [HQ1-44]", "% LDH/control 10 μM", "%", 118),
]
